Target: T1, Proleukin® (aldesleukin) (human, UniProt P60568 21-153, limits assumed)
T1 construct: Variant of human wt IL-2 with C145S (C125S on mature IL-2); also called IL-2 (Proleukin®); human IL-2 (Proleukin)
T1 sequence (P60568 other isoform, or with tags, fused parts or gaps limits assumed): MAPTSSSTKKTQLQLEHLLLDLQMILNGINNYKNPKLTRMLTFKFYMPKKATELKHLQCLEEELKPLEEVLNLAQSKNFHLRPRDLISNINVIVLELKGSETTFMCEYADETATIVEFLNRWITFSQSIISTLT
Assay: ELISA, coated Proleukin, HEK293F supernatant 1:2
Strictly below 2000 luminescence signal in ELISA value (wash 3x every hour for 12 HRS): Satisfied. Otherwise: Not satisfied.

1. Antibody No: 4 (antibody, human IgG1, kappa, N297A, V domains shown, VH WT; VK A50T; HEK293F supernatant) VH: EVQLVQSGAEVKKPGESLKISCKGSGYAFTNYLIEWVRQMPGKGLEWMGVINPGSGGTNYNEKFKGQVTISADKSISTAYLQWSSLKASDTAMYYCARWRGEGYYAYFDVWGQGTTVTVSS VL: AIRLTQSPSSFSASTGDRVTITCKASQSVDYQGDSYMNWYQQKPGKAPKLLIYTASNLESGVPSRFSGSGSGTDFTLTISSLQSEDFATYYCQQSNEDPYTFGGGTKVEIKR :: Satisfied
2. Antibody No: 17 (antibody, human IgG1, kappa, N297A, V domains shown, VK M33L; HEK293F supernatant) VH: EVQLVQSGAEVKKPGESLKISCKGSGYAFTNYLIEWVRQMPGKGLEWMGVINPGSGGTYYNEKFKGQVTISADKSISTAYLQWSSLKASDTAMYYCARWRGEGYYAYYDVWGQGTTVTVSS VL: AIRLTQSPSSFSASTGDRVTITCKASQSVDYQGDSYLNWYQQKPGKAPKLLIYAASNLESGVPSRFSGSGSGTDFTLTISSLQSEDFATYYCQQSNEDPYTFGGGTKVEIKR :: Satisfied
3. Antibody No: 19 (antibody, human IgG1, kappa, N297A, V domains shown, VK A50T; HEK293F supernatant) VH: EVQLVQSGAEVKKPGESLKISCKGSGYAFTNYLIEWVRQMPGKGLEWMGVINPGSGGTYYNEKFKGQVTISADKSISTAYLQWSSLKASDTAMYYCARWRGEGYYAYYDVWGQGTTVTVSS VL: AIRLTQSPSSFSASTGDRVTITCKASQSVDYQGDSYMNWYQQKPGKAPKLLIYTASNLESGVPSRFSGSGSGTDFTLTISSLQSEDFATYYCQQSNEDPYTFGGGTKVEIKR :: Not satisfied
4. Antibody No: 28 (antibody, human IgG1, kappa, N297A, V domains shown, VH N58Y + T30S; VK A50S; HEK293F supernatant; 108930 is kept apart) VH: EVQLVQSGAEVKKPGESLKISCKGSGYAFSNYLIEWVRQMPGKGLEWMGVINPGSGGTYYNEKFKGQVTISADKSISTAYLQWSSLKASDTAMYYCARWRGEGYYAYFDVWGQGTTVTVSS VL: AIRLTQSPSSFSASTGDRVTITCKASQSVDYQGDSYMNWYQQKPGKAPKLLIYSASNLESGVPSRFSGSGSGTDFTLTISSLQSEDFATYYCQQSNEDPYTFGGGTKVEIKR :: Not satisfied
5. Antibody No: 33 (antibody, human IgG1, kappa, N297A, V domains shown, VK A50S; HEK293F supernatant) VH: EVQLVQSGAEVKKPGESLKISCKGSGYAFSNYLIEWVRQMPGKGLEWMGVINPGSGGTYYNEKFKGQVTISADKSISTAYLQWSSLKASDTAMYYCARWRGEGYYAYYDVWGQGTTVTVSS VL: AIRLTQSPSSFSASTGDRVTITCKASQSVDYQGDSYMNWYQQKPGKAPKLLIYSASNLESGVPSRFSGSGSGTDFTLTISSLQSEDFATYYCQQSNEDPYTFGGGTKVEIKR :: Satisfied
